experiment: protein stability index of a GFP-peptide fusion (GPS, HEK-293T) (PSI 1-6); higher = more stable;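 also: 24-mer peptide tiles fused after GFP, lentivirally expressed, FACS-sorted into six equal bins by GFP/DsRed ratio, decoded by Illumina sequencing, PSI is the read-weighted mean bin number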
test.settings: treatment: MLN4924 1 uM, 8 h; c terminus: a fixed tail appended
protein stability index of 4 or higher: met. Under 4: not met.

The following sequences have reported results that may help.
{"columns": ["sequence.chain", "class"],
 "data": [
  ["ARCTAGTLHNLSHHREGLLAIFKS [CTNNB1]", "not met"],
  ["VIWDFLTRGIAKIISAHIHPVCSL [RBBP5]", "not met"],
  ["TNVKFLAITTDCLQILAYGNQESK [CTNNB1]", "not met"],
  ["QGSRSGVSGGSRSLNMSRRDSEST [PHTF1]", "met"],
  ["HCPESGEEAVILLEDLERELDEPQ [ZSCAN9]", "met"]
]}

Input: Reported protein stability index at or above 4? HCGVLEFVADEGICYLPHWMMQNL [UFD1]
Output: not met

Input: Reported protein stability index at or above 4? LIFLSNFPFSLLGLLALAIGLWGL [TSPAN10]
Output: not met

###

experiment: protein stability index of a GFP-peptide fusion (GPS, HEK-293T) (PSI 1-6); higher = more stable
test.settings: treatment: MLN4924 1 uM, 8 h; c terminus: a fixed tail appended
As shown below, each of these sequences has a reported protein stability index value.
Please reply with the number alone, leaving off any unit.

Recorded protein stability index, per entry:
{"columns": ["sequence.chain", "protein stability index"],
 "data": [
  ["FIRCSLQCRDLVDEAKKFHLRPEL [KLHL12]", 2.82],
  ["PEPVYKLTQRQVNITVQKKVSQWW [HACD3]", 2.51],
  ["LQCAMEENCLSASAAQTDPTTGYR [LOXL2]", 3.45],
  ["RTPEILKKALSGLSSRWKNWWIRG [CDS1]", 2.26],
  ["HMIQGAGSLEKALPIIQSNQVSSN [DLC1]", 4.27]
]}

From here, focus on the item given below.
Input: Output protein stability index of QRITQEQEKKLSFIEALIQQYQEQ [TRIM63]
Output: 3.02

###

experiment: protein stability index of a GFP-peptide fusion (GPS, HEK-293T) (PSI 1-6); higher = more stable
test.settings: treatment: DMSO; c terminus: a fixed tail appended
As shown below, each of these sequences has a reported protein stability index value.

Recorded protein stability index, per entry:
{"columns": ["sequence.chain", "observable", "result"],
 "data": [
  ["SEEALRADGFGDNPFYHCLVAEIL [SAT2]", "protein stability index", 3.08],
  ["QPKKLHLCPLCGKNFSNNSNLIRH [ZNF263]", "protein stability index", 3.02]
]}

From here, focus on the item given below.
Input: Output protein stability index of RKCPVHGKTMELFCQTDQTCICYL [TRIM29]
Output: 2.94

###

experiment: protein stability index of a GFP-peptide fusion (GPS, HEK-293T) (PSI 1-6); higher = more stable
test.settings: treatment: MLN4924 1 uM, 8 h; c terminus: a fixed tail appended
observable: protein stability index
Please reply with the number alone, leaving off any unit.

{"columns": ["sequence.chain", "protein stability index"],
 "data": [
  ["PKMLVDLLSQKKTISFLGCAIQMF [OR10K2]", 2.93],
  ["PGGITSHQLLGLFPSTSYNARLQA [TNXB]", 3.02]
]}

From here, focus on the item given below.
Input: Output protein stability index of CTAGNFMECQPESSISHRFHKDCA [EHMT1]
Output: 3.03

###

experiment: protein stability index of a GFP-peptide fusion (GPS, HEK-293T) (PSI 1-6); higher = more stable
test.settings: treatment: MLN4924 1 uM, 8 h; c terminus: a fixed tail appended
As shown below, each of these sequences has a reported protein stability index value.

Recorded protein stability index, per entry:
{"columns": ["sequence.chain", "protein stability index"],
 "data": [
  ["HCLDQVGLFRKSGVKSRIQALRQM [DLC1]", 2.4],
  ["PKNDNVVIPECAHGGLYKPVQCHP [SMOC2]", 3.6],
  ["KLGNLMSLDISGHMILENCSISKM [ZER1]", 2.24]
]}

Input: Output protein stability index of AFELLGKNTFEFLKENNFQPYPLP [CLK3]
Output: 2.65

Input: Output protein stability index of TDVQKKKLVDAIVSGDTSKLMKIL [RIPK4]
Output: 2.77

Input: Output protein stability index of NRNLQKFSLFGDISVLQQQGSLSN [FBXO33]
Output: 2.86

###

experiment: protein stability index of a GFP-peptide fusion (GPS, HEK-293T) (PSI 1-6); higher = more stable
test.settings: treatment: MLN4924 1 uM, 8 h; c terminus: a fixed tail appended
protein stability index of 4 or higher: Met. Under 4: Not met.

The following sequences have reported results that may help.
{"columns": ["sequence.chain", "class"],
 "data": [
  ["QIILENQKNFGLYVQEKRDGLKRR [RAD54B]", "Not met"],
  ["KVLEEGGFFEEKGAIFCPPCYDVR [PDLIM7]", "Not met"],
  ["GLAGYLSGYDGTFLFQKPGDKYEH [POMT2]", "Not met"],
  ["HDELLAEHIKSLLIKNNSLPRKRQ [INTS3]", "Met"],
  ["TPLEPDAKDLPCDSKPESALGAPS [TBX5]", "Met"],
  ["KSDKALMMLFNDGTFQVNFYHDHT [PLK2]", "Not met"],
  ["LALLPAAWEDSHGSQDGHFVLSCS [SCNN1D]", "Not met"],
  ["IEKWVILEKDFSIYGGELGPMMKL [ACSBG2]", "Not met"]
]}

Input: Reported protein stability index at or above 4? AALSASMASLLEDLSHIEGLSQAP [SERTAD1]
Output: Not met

Input: Reported protein stability index at or above 4? ARASEGSDSGSDKSLEGGGTAFDA [SMG5]
Output: Met

Input: Reported protein stability index at or above 4? PMVTSPREEQQLLASTSKPVVKLL [KCTD13]
Output: Met

###

As shown below, each of these sequences has a reported protein stability index value.
experiment: protein stability index of a GFP-peptide fusion (GPS, HEK-293T) (PSI 1-6); higher = more stable
test.settings: treatment: MLN4924 1 uM, 8 h; c terminus: a fixed tail appended
Please reply with the number alone, leaving off any unit.

{"columns": ["sequence.chain", "number"],
 "data": [
  ["EDLAQKLNLEEDRIQIWFQNRRAK [HESX1]", 4.11],
  ["HYICPRLGGIGFSSCIVCLFVGLY [SLC6A17]", 2.3],
  ["HCTTVDGQRQLMVPARDGTSCKLT [ADAMTSL2]", 4.44]
]}

Input: Output protein stability index of MQHSFPEPGRLYLDLILAILALEL [TMEM192]
Output: 2.45

Input: Output protein stability index of WTHDGIDINNNFPDLNTLLWEAED [CPXM2]
Output: 3.8

Input: Output protein stability index of ENDPEWWKCKNARGQVGLVPKNYV [NCK2]
Output: 3.54

###

experiment: protein stability index of a GFP-peptide fusion (GPS, HEK-293T) (PSI 1-6); higher = more stable
test.settings: treatment: DMSO; c terminus: a fixed tail appended
protein stability index of 3 or higher: class 1. Under 3: class 0.

The following sequences have reported results that may help.
{"columns": ["sequence.chain", "class"],
 "data": [
  ["NPPRAEFNYSVGFKDLNESLNALE [APBB1IP]", "class 1"],
  ["ENPVGTFHCSMSPGNLEKNRYGDV [PTPN9]", "class 1"]
]}

Input: Reported protein stability index at or above 3? SNSLAIAILMKAYQRFRQKSKASF [PTGFR]
Output: class 0

Input: Reported protein stability index at or above 3? LFLKDVLGDEICCWSFYGQGRKIA [KCTD13]
Output: class 0

Input: Reported protein stability index at or above 3? SPQSGSILTEETEVKGTLEGDVCG [PBXIP1]
Output: class 1

Input: Reported protein stability index at or above 3? FLDNGYGHCLLDKPEAPLHLPVTF [ADAMTS4]
Output: class 0

###

experiment: protein stability index of a GFP-peptide fusion (GPS, HEK-293T) (PSI 1-6); higher = more stable
test.settings: treatment: DMSO; c terminus: a fixed tail appended
As shown below, each of these sequences has a reported protein stability index value.

{"columns": ["sequence.chain", "result"],
 "data": [
  ["HYICPRLGGIGFSSCIVCLFVGLY [SLC6A17]", 2.39],
  ["YLRYVRRLDFFEKPDYEYLRTLFT [CSNK1G1]", 2.34],
  ["LIANIVHDGKPSEGSYRIHVLHHG [USP39]", 2.21]
]}

Input: Output protein stability index of HAGKKGKLSEHLRYCDSILREMLS [BRD3]
Output: 2.16

Input: Output protein stability index of GEPLALPLDAGEYCVPRGNRRRFR [BEX1]
Output: 4.8
